The reported numbers originate from the supplement of paper PMC10065799.

TESTED TARGET: Fyn (UniProt P06241)
Sequence (P06241 whole entry, looked up): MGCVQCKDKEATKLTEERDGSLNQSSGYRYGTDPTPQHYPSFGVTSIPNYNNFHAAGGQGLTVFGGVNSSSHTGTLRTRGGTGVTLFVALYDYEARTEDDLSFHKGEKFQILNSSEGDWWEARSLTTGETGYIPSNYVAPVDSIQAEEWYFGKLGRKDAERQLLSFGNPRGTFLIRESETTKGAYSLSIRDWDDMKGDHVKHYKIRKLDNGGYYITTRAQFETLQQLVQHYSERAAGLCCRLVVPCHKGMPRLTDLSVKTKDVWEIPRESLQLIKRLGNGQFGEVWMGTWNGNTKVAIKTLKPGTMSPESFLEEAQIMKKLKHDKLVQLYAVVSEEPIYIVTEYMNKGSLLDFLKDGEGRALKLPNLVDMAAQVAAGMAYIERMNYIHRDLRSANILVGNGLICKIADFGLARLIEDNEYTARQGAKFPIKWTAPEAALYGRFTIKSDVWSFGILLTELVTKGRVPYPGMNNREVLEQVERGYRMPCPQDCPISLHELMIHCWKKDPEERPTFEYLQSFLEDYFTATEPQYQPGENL
PROTOCOL NOTES: phosphorylation enrichment, bacterial display (enrichment ratio); higher = better substrate or ligand; peptides without Tyr show the background;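 also: 11-residue human phosphosite peptides and single-mutation variants displayed on the E. coli surface, counted by deep sequencing, each peptide's frequency after selection divided by its frequency in the unselected input library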;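 also: frequency after pTyr selection over input frequency; kinase dosed for 20-30% of maximal phosphorylation in three min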
ASSAY ENDPOINT: phosphorylation enrichment
Numbers only.

Would you please look over these solved cases?
What reported phosphorylation enrichment corresponds to KEIHAYRKLLE [LMNA_Y376_M371K] on Fyn (UniProt P06241)?
0.344

For ELAINYQEQAS [SLC9A9_Y591] then?
0.539

For EAEPFYCSLRD [NPHS1_Y1139_R1140C_YF] then?
2.66

For HSFNSYTFPRL [PAK5_Y316_YF] then?
0.407

Give phosphorylation enrichment for each of the items listed below.
1. PSPMPYASCQM [FOXL2_Y215]
2. TKDTFYQQPMF [GBA_Y451_K452Q]

1: 0.519; 2: 0.664

Give phosphorylation enrichment for each of the items listed below.
1. PEAALYGRFTF [FYN_Y440_I445F]
2. QQTFTYDSGIH [JUP_Y22_YF]
3. RIVTTYIRERE [DNM2_Y463]
4. RSGIFYKPESL [L2HGDH_Y103_H98R_YF]
5. ETKRPYTVILI [SBDS_Y128]
6. ITSLLYHVVGW [GBA_Y412_N409S]
7. TLNTNYHLPPS [MT-ATP8_Y33_M28T]

1. 10.1
2. 1.18
3. 0.811
4. 0.512
5. 0.457
6. 3.16
7. 0.47

What reported phosphorylation enrichment corresponds to TVLEHYRRTHC [MYBPC3_Y1119] on Fyn (UniProt P06241)?
0.52
